Molecular target: PI3Kβ (Homo sapiens)
Sequence (P42338 whole entry): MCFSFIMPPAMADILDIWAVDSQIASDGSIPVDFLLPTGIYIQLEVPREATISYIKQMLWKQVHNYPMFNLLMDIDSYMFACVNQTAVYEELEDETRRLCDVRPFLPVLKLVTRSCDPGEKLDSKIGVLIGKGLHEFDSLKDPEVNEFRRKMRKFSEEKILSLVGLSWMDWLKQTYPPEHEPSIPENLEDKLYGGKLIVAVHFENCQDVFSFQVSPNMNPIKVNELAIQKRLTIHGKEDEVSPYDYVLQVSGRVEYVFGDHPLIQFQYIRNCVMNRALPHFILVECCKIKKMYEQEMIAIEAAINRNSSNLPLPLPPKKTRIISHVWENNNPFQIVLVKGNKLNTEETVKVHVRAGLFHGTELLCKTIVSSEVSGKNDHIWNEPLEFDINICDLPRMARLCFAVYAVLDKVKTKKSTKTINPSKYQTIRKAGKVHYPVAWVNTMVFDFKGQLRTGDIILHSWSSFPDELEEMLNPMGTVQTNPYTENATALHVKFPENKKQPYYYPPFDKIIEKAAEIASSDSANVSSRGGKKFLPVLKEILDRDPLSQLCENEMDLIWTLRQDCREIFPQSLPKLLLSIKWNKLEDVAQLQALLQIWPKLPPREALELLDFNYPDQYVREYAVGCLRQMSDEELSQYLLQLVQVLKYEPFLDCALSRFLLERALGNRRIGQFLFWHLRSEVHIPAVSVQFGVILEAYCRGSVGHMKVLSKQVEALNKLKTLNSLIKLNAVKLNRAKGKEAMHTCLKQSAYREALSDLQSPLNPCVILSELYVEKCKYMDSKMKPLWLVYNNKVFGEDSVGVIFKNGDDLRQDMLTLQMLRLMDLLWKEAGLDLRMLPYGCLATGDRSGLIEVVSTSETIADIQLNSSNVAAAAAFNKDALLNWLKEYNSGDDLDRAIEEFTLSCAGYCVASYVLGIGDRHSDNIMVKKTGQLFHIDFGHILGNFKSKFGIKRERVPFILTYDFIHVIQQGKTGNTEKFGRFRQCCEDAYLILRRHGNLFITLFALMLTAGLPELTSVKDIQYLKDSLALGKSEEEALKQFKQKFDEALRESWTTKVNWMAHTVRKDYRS
pKd: −log10 of the molar value.
reported-metric: pKd

**Query** In one line, give reported pKd of the entry Nc1ncc(-c2nc(N3CCOCC3)nc(N3CCOCC3)n2)c(C(F)F)n1 [PQR514 (4)] .
**Result** > 8.15

====

Target: PI3Kδ (Homo sapiens)
Sequence (O00329 1-1044): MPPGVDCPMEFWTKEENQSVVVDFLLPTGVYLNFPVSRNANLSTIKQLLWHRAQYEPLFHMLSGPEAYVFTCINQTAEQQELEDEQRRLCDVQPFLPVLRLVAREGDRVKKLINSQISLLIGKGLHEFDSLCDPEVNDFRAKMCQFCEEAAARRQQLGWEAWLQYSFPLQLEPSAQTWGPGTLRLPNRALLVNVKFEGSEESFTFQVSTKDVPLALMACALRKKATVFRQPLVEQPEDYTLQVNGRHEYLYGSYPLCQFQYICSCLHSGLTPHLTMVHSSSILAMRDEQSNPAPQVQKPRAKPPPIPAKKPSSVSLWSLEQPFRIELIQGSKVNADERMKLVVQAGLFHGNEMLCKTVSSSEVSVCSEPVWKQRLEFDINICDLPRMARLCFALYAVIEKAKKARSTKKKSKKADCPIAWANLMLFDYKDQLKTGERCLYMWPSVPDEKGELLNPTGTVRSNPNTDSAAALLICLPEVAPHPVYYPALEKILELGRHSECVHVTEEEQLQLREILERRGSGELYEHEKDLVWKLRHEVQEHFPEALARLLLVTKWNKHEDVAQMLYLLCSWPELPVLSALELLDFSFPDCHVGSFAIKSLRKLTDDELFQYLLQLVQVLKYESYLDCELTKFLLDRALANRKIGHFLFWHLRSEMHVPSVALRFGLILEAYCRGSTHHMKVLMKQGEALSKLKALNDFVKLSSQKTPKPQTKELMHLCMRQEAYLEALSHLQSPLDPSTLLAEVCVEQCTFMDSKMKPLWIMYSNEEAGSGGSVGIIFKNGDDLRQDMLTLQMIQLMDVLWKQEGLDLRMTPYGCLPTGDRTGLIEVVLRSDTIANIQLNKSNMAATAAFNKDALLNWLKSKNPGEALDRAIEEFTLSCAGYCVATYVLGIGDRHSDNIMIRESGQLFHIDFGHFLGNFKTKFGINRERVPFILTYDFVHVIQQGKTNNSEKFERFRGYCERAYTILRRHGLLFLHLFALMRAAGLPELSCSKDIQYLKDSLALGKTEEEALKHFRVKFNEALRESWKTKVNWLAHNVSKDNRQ
pKd: −log10 of the molar value.
reported-metric: pKd

**Query** Fill: pKd (PI3Kδ (Homo sapiens)) for this compound `Nc1ncc(-c2nc(N3CCOCC3)nc(N3CCOCC3)n2)c(C(F)F)n1`
**Result** > 8.15

====

Assay: Liver microsome stability
Type: in vitro ADME
Conditions: human, liver microsomes, pH 7.4
reported-metric: remaining at 0.5 h, 1 µM (%)
State just the number; it will be interpreted in %.

**Query** Specify measured remaining at 0.5 h, 1 µM for Nc1ncc(-c2nc(N3CCOCC3)nc(N3CCOCC3)n2)c(C(F)F)n1 [PQR514 (4)] .
**Result** 87.2

====

Test: Liver microsome stability
Type: in vitro ADME
Conditions: dog, liver microsomes, pH 7.4
reported-metric: remaining at 0.5 h, 1 µM (%)
Record the value in %, omitting the unit from your answer.

**Query** Fill in reported remaining at 0.5 h, 1 µM for this entry: Nc1ncc(-c2nc(N3CCOCC3)nc(N3CCOCC3)n2)c(C(F)F)n1 [PQR514 (4)]
**Result** 92.7

Reference for the values: paper PMC6792169
